Test: AUC (0 to infinity) in portal vein of portal vein-cannulated beagle dog at 10 mg/kg, po by LC-MS/MS method
Type: ADME, organism-based, Canis lupus familiaris
Parameters: dose 10 mg/kg, time infinity, route oral
Metric: AUC(0-inf) (µM·h)
Write the number in µM·h without appending the unit.

{"Compound Structure String": "CC(C)OC(=O)OCOc1c2c(c3n(c1=O)[C@@]1(CC[C@H]4C[C@H]41)N(C[C@H](C)O)C3=O)CCN(Cc1ccc(F)c(Cl)c1)C2=O", "AUC(0-inf), µM·h": 1.12}

For the next question, use this compound.
Look up AUC(0-inf) of CC(C)OC(=O)OCOc1c2c(c3n(c1=O)[C@]1(CC[C@@H]4C[C@@]41CO)N(C)C3=O)CCN(Cc1ccc(F)c(Cl)c1)C2=O and report it.
2.55

----------
// values below are reported log10 of IP
Test system: Human immunodeficiency virus 1
Experiment: Antiviral activity against HIV1 infected in human MT4 cells expressing GFP incubated for 48 to 72 hrs in absence of 50% normal human serum by multiple round viral replication kinetics assay
Type: functional
Use the decimal logarithm of IP (nM).

{"Compound Structure String": "CC(C)OC(=O)OCOc1c2c(c3n(c1=O)[C@@]1(CC[C@H]4C[C@H]41)N(C[C@H](C)O)C3=O)CCN(Cc1ccc(F)c(Cl)c1)C2=O", "log10 of IP": 2.25}

Report log10 of IP for CC(C)OC(=O)OCOc1c2c(c3n(c1=O)[C@]1(CC[C@@H]4C[C@@]41CO)N(C)C3=O)CCN(Cc1ccc(F)c(Cl)c1)C2=O
1.20

Supply log10 of IP value. Item: C[C@H](O)CN1C(=O)c2c3c(c(O)c(=O)n2[C@@]12CC[C@H]1C[C@H]12)C(=O)N(Cc1ccc(F)c(Cl)c1)CC3
0.30

Retrieve log10 of IP measured for CN1C(=O)c2c3c(c(O)c(=O)n2[C@]12CC[C@@H]1C[C@@]12CO)C(=O)N(Cc1ccc(F)c(Cl)c1)CC3 and print it.
0.48

Name the recorded log10 of IP of the molecule listed here: CC(C)n1c(C(=O)N(C)C)c2c(c(O)c1=O)C(=O)N(Cc1ccc(F)c(Cl)c1)CC2
0.78

----------
Tested on: Human immunodeficiency virus 1
Assay: Antiviral activity against HIV1 infected in human MT4 cells expressing GFP incubated for 48 to 72 hrs in presence of 50% normal human serum by multiple round viral replication kinetics assay
Assay type: functional
We begin with a simple list: items and their reported IP.
The reply should be a number in nM, with the unit left off.

{"Compound Structure String": "CC(C)n1c(C(=O)N(C)C)c2c(c(O)c1=O)C(=O)N(Cc1ccc(F)c(Cl)c1)CC2", "Unit Symbol": "nM", "Experimental Result": 53}
{"Compound Structure String": "C[C@H](O)CN1C(=O)c2c3c(c(O)c(=O)n2[C@@]12CC[C@H]1C[C@H]12)C(=O)N(Cc1ccc(F)c(Cl)c1)CC3", "Unit Symbol": "nM", "Experimental Result": 67}
{"Compound Structure String": "O=C1N[C@]2(CC[C@H]3C[C@H]32)n2c1c1c(c(O)c2=O)C(=O)N(Cc2ccc(F)c(Cl)c2)CC1", "Unit Symbol": "nM", "Experimental Result": 600}
{"Compound Structure String": "Cc1nnc(C(=O)NC(C)(C)c2nc(C(=O)NCc3ccc(F)cc3)c(O)c(=O)n2C)o1", "Unit Symbol": "nM", "Experimental Result": 53}

Now take the following compound into account.
Please give measured IP of the following entry: CN1C(=O)c2c3c(c(O)c(=O)n2[C@]12CC[C@@H]1C[C@@]12CO)C(=O)N(Cc1ccc(F)c(Cl)c1)CC3
32

Value source: ChEMBL document CHEMBL3621084
